The reported numbers originate from patent US12030878B2.

Molecular target: human TLR9 (Homo sapiens)
Sequence (Q9NR96 26-1032): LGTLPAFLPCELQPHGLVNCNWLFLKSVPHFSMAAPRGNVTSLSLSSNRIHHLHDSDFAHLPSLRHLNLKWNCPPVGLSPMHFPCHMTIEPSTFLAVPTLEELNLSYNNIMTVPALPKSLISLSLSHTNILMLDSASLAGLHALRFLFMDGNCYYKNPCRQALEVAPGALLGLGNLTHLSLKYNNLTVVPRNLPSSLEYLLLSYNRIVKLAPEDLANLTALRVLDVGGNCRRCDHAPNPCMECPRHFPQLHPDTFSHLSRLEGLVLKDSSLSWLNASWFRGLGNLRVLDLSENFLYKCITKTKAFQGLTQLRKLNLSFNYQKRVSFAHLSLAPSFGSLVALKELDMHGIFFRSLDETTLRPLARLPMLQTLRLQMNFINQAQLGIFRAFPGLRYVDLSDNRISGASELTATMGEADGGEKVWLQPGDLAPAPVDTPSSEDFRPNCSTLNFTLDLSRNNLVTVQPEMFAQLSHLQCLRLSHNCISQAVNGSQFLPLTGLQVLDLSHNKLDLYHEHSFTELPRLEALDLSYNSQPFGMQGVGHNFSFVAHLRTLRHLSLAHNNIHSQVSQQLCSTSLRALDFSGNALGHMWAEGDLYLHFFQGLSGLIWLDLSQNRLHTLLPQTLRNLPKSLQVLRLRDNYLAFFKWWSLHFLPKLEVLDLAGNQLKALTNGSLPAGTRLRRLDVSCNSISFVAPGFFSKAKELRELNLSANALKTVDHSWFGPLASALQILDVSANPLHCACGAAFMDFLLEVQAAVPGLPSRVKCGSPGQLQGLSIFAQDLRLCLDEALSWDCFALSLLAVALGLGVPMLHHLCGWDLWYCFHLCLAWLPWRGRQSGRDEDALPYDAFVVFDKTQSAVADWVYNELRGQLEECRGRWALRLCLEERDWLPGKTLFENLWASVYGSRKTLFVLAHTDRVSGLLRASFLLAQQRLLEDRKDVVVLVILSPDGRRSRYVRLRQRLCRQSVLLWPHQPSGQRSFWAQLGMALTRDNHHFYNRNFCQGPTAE
Experiment: TLR9 inhibition reporter assay (HEK-Blue SEAP)
Details: HEK-Blue cells overexpressing human TLR9, stimulated with ODN2006 5 nM, 22 hour incubation
IC50 overview
ENDPOINT: IC50

MOLECULE	OBSERVED VALUE
Cc1cc(-c2[nH]c3ccc(OCC(=O)N4CCC(CN)CC4)cc3c2C(C)C)ccn1 [Example 147]	1540 nM
Cc1cc(-c2[nH]c3ccc(OC4CCN(CCO)CC4)cc3c2C(C)C)cc(C)n1 [Example 70]	1040 nM
Cc1c(-c2[nH]c3ccc(OCC4CCN(C(=O)CN(C)C)CC4)cc3c2C(C)C)cn2cnnc2c1C [Example 106]	2110 nM
Cc1c(-c2[nH]c3ccc(OCC4CCN(C5COC5)CC4)cc3c2C(C)C)cn(C)c(=O)c1C [Example 51]	> 50000 nM
Cc1cc(-c2[nH]c3ccc(OC4CCNCC4)cc3c2C(C)C)cc(C)n1 [Example 1]	241 nM
Cc1cc(-c2[nH]c3ccc(OCC4CN(C5COC5)C4)cc3c2C(C)C)cn2ncnc12 [Example 60]	2620 nM
CNCCOc1ccc2[nH]c(-c3ccnc(C)c3)c(C(C)C)c2c1 [Example 172]	3120 nM
Cc1cc(-c2[nH]c3ccc(OCC4CCN(C(C)C)CC4)cc3c2C(C)C)cc(C)n1 [Example 35]	317 nM
Cc1c(-c2[nH]c3ccc(OC4CCN(C(=O)CN(C)C)CC4)cc3c2C(C)C)cn(C)c(=O)c1C [Example 104]	5110 nM
Cc1c(-c2[nH]c3ccc(OCC4CN(CC(C)(C)O)C4)cc3c2C(C)C)cn2cnnc2c1C [Example 28]	1250 nM
Cc1cc(-c2[nH]c3ccc(OCc4ccccc4)cc3c2C(C)C)ccn1 [Example 165]	> 50000 nM
Cc1cc(-c2[nH]c3ccc(OCC4CCN(C(C)C)CC4)cc3c2C(C)C)ccn1 [Example 191]	2810 nM
COc1ccc(-c2[nH]c3ccc(OCC(=O)N[C@H]4CCNC4)cc3c2C(C)C)cc1OC [Example 134]	359 nM
Cc1cc(-c2[nH]c3ccc(OC4CCN(CC(C)C)CC4)cc3c2C(C)C)cn2ncnc12 [Example 77]	2830 nM
COc1ccc(-c2[nH]c3ccc(OCC(=O)NCC4CCCCN4)cc3c2C(C)C)cc1OC (stereo not drawn) [Example 126]	1900 nM
Cc1cc(-c2[nH]c3ccc(OCC4CCN(C(C)C)CC4)cc3c2C(C)C)cn(C)c1=O [Example 36]	10600 nM
Cc1cc(-c2[nH]c3ccc(OCC4CCCNC4)cc3c2C(C)C)ccn1 (stereo not drawn) [Example 180]	1830 nM
Cc1cc(-c2[nH]c3ccc(OC4CCN(CC(=O)N(C)C)CC4)cc3c2C(C)C)cn2ncnc12 [Example 85]	1350 nM
Cc1cc(-c2[nH]c3ccc(OCC(=O)N4CC5CN(C)CC5C4)cc3c2C(C)C)ccn1 (stereo not drawn) [Example 149]	410 nM
Cc1cc(-c2[nH]c3ccc(OC4CCN(C5CCN(C(C)C)CC5)CC4)cc3c2C(C)C)ccn1 [Example 195]	58 nM
COc1ccc(-c2[nH]c3ccc(OCC(=O)N(C)C4CCCNC4)cc3c2C(C)C)cc1OC (stereo not drawn) [Example 127]	858 nM
Cc1cc(-c2[nH]c3ccc(OCC(=O)N(C)C4CCNCC4)cc3c2C(C)C)ccn1 [Example 148]	172 nM
Cc1cc(-c2[nH]c3ccc(O[C@H]4CCCNC4)cc3c2C(C)C)cn(C)c1=O [Example 8]	3520 nM
COc1ccc(-c2[nH]c3ccc(OCC(=O)NC[C@H]4CCNC4)cc3c2C(C)C)cc1OC [Example 119]	2700 nM
Cc1cc(-c2[nH]c3ccc(OCc4cccnc4)cc3c2C(C)C)ccn1 [Example 169]	28400 nM
CCCN1CCC(COc2ccc3[nH]c(-c4cn5cnnc5c(C)c4C)c(C(C)C)c3c2)CC1 [Example 62]	1290 nM
Cc1cc(-c2[nH]c3ccc(OCC4CCN(C)CC4)cc3c2C(C)C)cn2ncnc12 [Example 41]	3440 nM
COc1cc(-c2[nH]c3ccc(OC4CCN(C)CC4)cc3c2C(C)C)cn2ncnc12 [Example 65]	1750 nM
Cc1cc(-c2[nH]c3ccc(OC4CCN(C(C)C)CC4)cc3c2C(C)C)cn2ncnc12 [Example 47]	2480 nM
Cc1cc(-c2[nH]c3ccc(OC4CCN(CCCO)CC4)cc3c2C(C)C)cc(C)n1 [Example 72]	528 nM
Cc1cc(-c2[nH]c3ccc(OCC4CCCN(C)C4)cc3c2C(C)C)ccn1 (stereo not drawn) [Example 181]	915 nM
Cc1c(-c2[nH]c3ccc(OC4CCN(C(C)C)CC4)cc3c2C(C)C)cn2cnnc2c1C [Example 57]	18600 nM
COc1ccc(-c2[nH]c3ccc(OCC(=O)NC4CCN(C(C)C)CC4)cc3c2C(C)C)cc1OC [Example 139]	2440 nM
